Measured %Inh, listed per entry.
# System: HIPK3
# condition.set: concentration: 1 μM, replicates: in singlicate; n = 1;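 further: KINOMEscan kinase panel screen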
Only the number, expressed in %, is required.

Tested on HIPK3: `Cc1cccc(Nc2nc(NCCN)ncc2C(N)=O)c1` . Observed %Inh: 7

Tested on HIPK3: `CCNC(=O)/C=C/c1n[nH]c2cc(Sc3ccccc3C(=O)NC)ccc12` . Observed %Inh: 22

Tested on HIPK3: `c1ccc(Oc2ccc(Nc3ccnc4cc(-c5ccc(CN6CCCCC6)o5)ccc34)cc2)nc1` . Observed %Inh: 8

---

# Tested on: STK39
# condition.set: concentration: 1 μM, replicates: in singlicate; n = 1
property.label: %Inh
Give the figure together with its unit, number first.

Form: compound = `Cn1cc(-c2cnc(N)c3c(-c4ccc5c(c4)CCN5C(=O)Cc4ccccc4)csc23)cn1` ; %Inh = 0%

Form: compound = `Cc1cccc(Nc2nc(NCCN)ncc2C(N)=O)c1` ; %Inh = 14%

Form: compound = `c1ccc(Oc2ccc(Nc3ccnc4cc(-c5ccc(CN6CCCCC6)o5)ccc34)cc2)nc1` ; %Inh = 0%

Form: compound = `COc1ccc(C)c(Nc2ccnc(Nc3ccc(-c4cnc[nH]4)cc3)n2)c1.Cl` ; %Inh = 0%

Form: compound = `N#Cc1cnc2cc(-c3cnc(CNCCN4CCOCC4)s3)ccc2c1Nc1ccc(Oc2ccccc2)cc1` ; %Inh = 0%

// data source = paper PMC5540273
